The following compounds are shown together with reported IC50 values.
- Target or system: UniProt:P11712
- Sequence (P11712 whole entry): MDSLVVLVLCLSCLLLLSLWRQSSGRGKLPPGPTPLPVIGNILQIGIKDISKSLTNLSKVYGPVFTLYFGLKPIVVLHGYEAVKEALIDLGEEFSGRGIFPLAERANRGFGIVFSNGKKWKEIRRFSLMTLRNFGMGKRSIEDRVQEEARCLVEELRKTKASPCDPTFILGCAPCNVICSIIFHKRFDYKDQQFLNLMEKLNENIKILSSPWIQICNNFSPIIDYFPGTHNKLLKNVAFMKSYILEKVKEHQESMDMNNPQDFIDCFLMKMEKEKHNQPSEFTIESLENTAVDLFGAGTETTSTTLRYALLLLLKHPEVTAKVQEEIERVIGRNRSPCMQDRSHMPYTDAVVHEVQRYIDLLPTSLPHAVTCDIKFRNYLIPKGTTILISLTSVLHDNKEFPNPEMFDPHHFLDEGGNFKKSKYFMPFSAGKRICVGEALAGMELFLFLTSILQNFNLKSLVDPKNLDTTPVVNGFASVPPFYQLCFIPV
- Protocol summary: Cytochrome P450 isoenzyme inhibition assay, hydroxylation of Diclofenac
- Assay type: in vitro ADME
- Experimental parameters: measured examples from WO 2013/127729 (Table 1)
Measurement kind: IC50 (nM)

[[record]]
compound = "CNC(C)C(=O)Nc1ccc(-c2c(-c3ccncc3)nc3cc(C)ccn23)c(C#Cc2ccc3c(c2)OCC(=O)N3C)n1 (centres unmarked) [Ex 94, reference compound]"
reading = 700

[[record]]
compound = "CNC(C)C(=O)Nc1ccc(-c2c(-c3ccncc3)nc3cc(C)ccn23)c(C#Cc2ccc(-c3ccon3)cc2)n1 (centres unmarked) [Ex 82, reference compound]"
reading = 400

[[record]]
compound = "CNC(C)C(=O)Nc1ccc(-c2c(-c3ccncc3)nc3cc(C)ccn23)c(C#Cc2ccc3c(ccc(=O)n3C)c2)n1 (centres unmarked) [Ex 81, reference compound]"
reading = 900

[[record]]
compound = "CNC(C)C(=O)Nc1ccc(-c2c(-c3ccncc3)nc3cc(C)ccn23)c(C#Cc2ccc3nc(C)ccc3c2)n1 (centres unmarked) [Ex 64, reference compound]"
reading = 400

[[record]]
compound = "CNC(C)C(=O)Nc1ccc(-c2c(-c3ccncc3)nc3cc(C)ccn23)c(C#Cc2ccccc2)n1 (centres unmarked) [Ex 185, reference compound]"
reading = 4800


###

- Target or system: cIAP1 BIR3 (Homo sapiens (Human), UniProt Q13490)
- Sequence (Q13490 256-363): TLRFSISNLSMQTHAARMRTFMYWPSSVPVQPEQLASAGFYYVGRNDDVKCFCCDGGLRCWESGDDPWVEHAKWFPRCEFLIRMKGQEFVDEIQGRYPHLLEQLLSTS
- Protocol summary: cIAP1 BIR3 binding assay (DELFIA), BIR3-SMAC peptide interaction
- Experimental parameters: (S)-isomers; BIR3 domain 10 nM, SMAC peptide 10 nM; read-out: cIAP1 BIR-3 IC50
Measurement kind: IC50 (nM)

[[record]]
compound = "CN[C@@H](C)C(=O)Nc1ccc(-c2c(-c3cccnc3C)nc3cc(C)ccn23)c(C#Cc2ccc3c(C)nccc3c2)n1 [(S)-5]"
unit_tag = "nM"
reading = 2

[[record]]
compound = "CN[C@@H](C)C(=O)Nc1ccc(-c2c(-c3ccc(OC)nc3)nc3cc(C)ccn23)c(C#Cc2ccc3c(ccc(=O)n3C)c2)n1 [(S)-14]"
unit_tag = "nM"
reading = 1

[[record]]
compound = "CN[C@@H](C)C(=O)Nc1ccc(-c2c(-c3cnc(C)nc3)nc3cc(C)ccn23)c(C#Cc2ccc3c(C)nccc3c2)n1 [(S)-7]"
unit_tag = "nM"
reading = 1

[[record]]
compound = "CN[C@@H](C)C(=O)Nc1ccc(-c2c(-c3cccnc3OC)nc3cc(Cl)ccn23)c(C#Cc2ccc3c(C)nccc3c2)n1 [(S)-15]"
unit_tag = "nM"
reading = 2

[[record]]
compound = "CN[C@@H](C)C(=O)Nc1ccc(-c2c(-c3cnn(C)c3)nc3cc(C)ccn23)c(C#Cc2ccc3c(C)nccc3c2)n1 [(S)-3]"
unit_tag = "nM"
reading = 1

[[record]]
compound = "CN[C@@H](C)C(=O)Nc1ccc(-c2c(-c3cnc(C)nc3)nc3cc(C)ccn23)c(C#Cc2ccc3c(ccc(=O)n3C)c2)n1 [(S)-12]"
unit_tag = "nM"
reading = 2

[[record]]
compound = "CN[C@@H](C)C(=O)Nc1ccc(-c2c(-c3cccnc3OC)nc3cc(C)ccn23)c(C#Cc2ccc3c(C)nccc3c2)n1 [(S)-1]"
unit_tag = "nM"
reading = 1


###

- Target or system: P450 2D6 (Homo sapiens (Human))
- Sequence (P10635 whole entry): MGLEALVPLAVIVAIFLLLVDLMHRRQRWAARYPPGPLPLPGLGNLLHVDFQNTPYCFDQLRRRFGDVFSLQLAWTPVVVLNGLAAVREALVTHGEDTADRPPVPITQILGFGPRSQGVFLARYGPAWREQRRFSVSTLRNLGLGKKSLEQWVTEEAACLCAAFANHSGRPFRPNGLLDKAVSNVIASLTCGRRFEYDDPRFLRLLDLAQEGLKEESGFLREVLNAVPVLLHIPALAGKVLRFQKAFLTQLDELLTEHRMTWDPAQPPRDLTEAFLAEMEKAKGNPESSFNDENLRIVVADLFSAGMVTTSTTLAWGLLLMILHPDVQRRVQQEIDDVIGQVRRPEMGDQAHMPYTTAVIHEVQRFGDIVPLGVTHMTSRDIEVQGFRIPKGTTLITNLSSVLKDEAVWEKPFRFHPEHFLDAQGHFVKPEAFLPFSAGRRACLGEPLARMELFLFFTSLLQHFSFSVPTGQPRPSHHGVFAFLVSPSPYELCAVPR
- Protocol summary: Cytochrome P450 isoenzyme inhibition assay, demethylation of Dextromethorphan
- Format: in vitro ADME
- Experimental parameters: measured examples from WO 2013/127729 (Table 1)
pIC50: −log10 of the molar value.
Measurement kind: pIC50

[[record]]
molecule = "CNC(C)C(=O)Nc1ccc(-c2c(-c3ccncc3)nc3cc(C)ccn23)c(C#Cc2ccc(-c3ccon3)cc2)n1 (centres unmarked) [Ex 82, reference compound]"
measurement_kind = "pIC50"
reading = 5.66

[[record]]
molecule = "CNC(C)C(=O)Nc1ccc(-c2c(-c3ccncc3)nc3cc(C)ccn23)c(C#Cc2ccc3nc(C)ccc3c2)n1 (centres unmarked) [Ex 64, reference compound]"
measurement_kind = "pIC50"
reading = 5.28

[[record]]
molecule = "CNC(C)C(=O)Nc1ccc(-c2c(-c3ccncc3)nc3cc(C)ccn23)c(C#Cc2ccc3c(ccc(=O)n3C)c2)n1 (centres unmarked) [Ex 81, reference compound]"
measurement_kind = "pIC50"
reading = 5.47

[[record]]
molecule = "CNC(C)C(=O)Nc1ccc(-c2c(-c3ccncc3)nc3cc(C)ccn23)c(C#Cc2ccccc2)n1 (centres unmarked) [Ex 185, reference compound]"
measurement_kind = "pIC50"
reading = 5.57

[[record]]
molecule = "CNC(C)C(=O)Nc1ccc(-c2c(-c3ccncc3)nc3cc(C)ccn23)c(C#Cc2ccc3c(c2)OCC(=O)N3C)n1 (centres unmarked) [Ex 94, reference compound]"
measurement_kind = "pIC50"
reading = 5.48


###

The following compounds are shown together with reported pIC50 values.
- Target or system: P450 2C8 (Homo sapiens (Human))
- Sequence (P10632 whole entry): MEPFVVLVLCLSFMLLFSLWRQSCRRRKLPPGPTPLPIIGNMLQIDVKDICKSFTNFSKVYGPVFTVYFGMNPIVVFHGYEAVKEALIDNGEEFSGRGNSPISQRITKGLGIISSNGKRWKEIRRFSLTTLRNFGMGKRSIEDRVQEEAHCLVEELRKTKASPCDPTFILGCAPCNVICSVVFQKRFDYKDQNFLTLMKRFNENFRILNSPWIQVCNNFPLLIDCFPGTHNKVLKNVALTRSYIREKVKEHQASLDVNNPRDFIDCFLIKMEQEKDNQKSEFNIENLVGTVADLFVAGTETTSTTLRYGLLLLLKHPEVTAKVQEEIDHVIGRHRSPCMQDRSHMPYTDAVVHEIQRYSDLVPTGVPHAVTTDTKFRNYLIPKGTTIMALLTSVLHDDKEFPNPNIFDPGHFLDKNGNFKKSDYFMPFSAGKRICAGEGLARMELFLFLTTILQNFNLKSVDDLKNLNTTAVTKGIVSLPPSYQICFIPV
- Protocol summary: Cytochrome P450 isoenzyme inhibition assay, deethylation of Amodiaquine
- Assay type: in vitro ADME
- Experimental parameters: (S)-isomers; human liver microsomes, 37° C.
pIC50: −log10 of the molar value.
Measurement kind: pIC50

[[record]]
compound = "CN[C@@H](C)C(=O)Nc1ccc(-c2c(-c3cnc(C)nc3)nc3cc(C)ccn23)c(C#Cc2ccc3c(ccc(=O)n3C)c2)n1 [(S)-12]"
reading = "< 4.30"

[[record]]
compound = "CN[C@@H](C)C(=O)Nc1ccc(-c2c(-c3cnn(C)c3)nc3cc(C)ccn23)c(C#Cc2ccc3c(C)nccc3c2)n1 [(S)-3]"
reading = 4.85

[[record]]
compound = "CN[C@@H](C)C(=O)Nc1ccc(-c2c(-c3ccc(OC)nc3)nc3cc(C)ccn23)c(C#Cc2ccc3c(ccc(=O)n3C)c2)n1 [(S)-14]"
reading = "< 4.30"

